# Test system: RARg homodimer (NR concentration 270 nM)
# assay-text: PBM binding z-score (relative to random genomic background probes); higher = stronger binding; sequences stand for … in GC…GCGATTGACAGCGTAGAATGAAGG
Listed next: entries and their corresponding PBM binding z-score.
Reply with just the number.

Here is how some sequences turned out for PBM binding z-score.
{"chain-sequence": "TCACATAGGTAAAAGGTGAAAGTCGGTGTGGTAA", "measurement-target": "RARg homodimer (NR concentration 270 nM)", "PBM binding z-score": 0.992}
{"chain-sequence": "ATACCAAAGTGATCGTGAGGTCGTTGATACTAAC", "measurement-target": "RARg homodimer (NR concentration 270 nM)", "PBM binding z-score": 0.273}
{"chain-sequence": "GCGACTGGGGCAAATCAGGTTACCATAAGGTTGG", "measurement-target": "RARg homodimer (NR concentration 270 nM)", "PBM binding z-score": 0.619}
{"chain-sequence": "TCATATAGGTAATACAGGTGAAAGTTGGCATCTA", "measurement-target": "RARg homodimer (NR concentration 270 nM)", "PBM binding z-score": 0.788}

Challenge: Fill in the blank: the reported PBM binding z-score of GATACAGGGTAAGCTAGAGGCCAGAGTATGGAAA is ____.
Response given: 0.547

Challenge: Entry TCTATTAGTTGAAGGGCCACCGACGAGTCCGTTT : reported PBM binding z-score = ?
Response given: 0.128

Challenge: Item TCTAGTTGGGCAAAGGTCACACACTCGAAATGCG has what recorded PBM binding z-score?
Response given: 5.87

Challenge: Quick one: PBM binding z-score of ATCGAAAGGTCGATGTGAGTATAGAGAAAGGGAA ?
Response given: 3.01

Challenge: # PBM binding z-score lookup, item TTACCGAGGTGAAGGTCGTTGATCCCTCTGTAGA
Response given: 1.02

Challenge: Value lookup for PBM binding z-score; key = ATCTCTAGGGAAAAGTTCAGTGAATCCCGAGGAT
Response given: 1.69

Challenge: What measured PBM binding z-score goes with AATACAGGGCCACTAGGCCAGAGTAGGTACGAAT ?
Response given: 0.711

Challenge: Item under review: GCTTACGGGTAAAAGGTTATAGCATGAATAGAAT . Reported PBM binding z-score?
Response given: 1.35

Challenge: Recorded PBM binding z-score for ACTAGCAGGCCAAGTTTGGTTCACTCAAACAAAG , please?
Response given: 0.218

Challenge: Look up PBM binding z-score: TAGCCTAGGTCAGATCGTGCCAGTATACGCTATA
Response given: 3.28

Challenge: I'd like to know its PBM binding z-score. The sequence in question is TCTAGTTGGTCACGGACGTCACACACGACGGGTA
Response given: 1.55

Challenge: Quick one: PBM binding z-score for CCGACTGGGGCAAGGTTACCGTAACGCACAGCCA ?
Response given: 1.28

Challenge: Entry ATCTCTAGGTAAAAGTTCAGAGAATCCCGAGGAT has what PBM binding z-score?
Response given: 1.97

The measured values listed here are drawn from the supplement of paper PMC6555819.
